The reported measurements were obtained from the supplement of paper PMC10646978.

- Tested on: RAW-Dual (murine macrophage reporter line)
- method_summary: IRF reporter (Lucia luciferase) activity fold change vs agonist alone; higher = enhanced IRF activity
- assay_conditions: modulator concentration 10 µM; agonist: 3'3'-cGAMP 10 ug/mL
endpoint_name: IRF reporter
// return just the number, without any unit appended

Query :: Lab note: need IRF reporter for COc1ccc(CNCc2cccc3ccccc23)c(OC)c1 on RAW-Dual (murine macrophage reporter line), anyone have it?
Result :: 0.968

Query :: Lab note: need IRF reporter for COc1ccc(CCC(=O)NCc2nc(N(C)C)nc(N3CCCCC3)n2)cc1 on RAW-Dual (murine macrophage reporter line), anyone have it?
Result :: 0.801

Query :: Lab note: need IRF reporter for COCC(=O)N1CCC2(CC1)NC(=O)N(Cc1ccc(Cl)cc1)C2=O on RAW-Dual (murine macrophage reporter line), anyone have it?
Result :: 0.995

Query :: Lab note: need IRF reporter for Cc1ccc(S(=O)(=O)n2nc(C)c(C)c2C)cc1C on RAW-Dual (murine macrophage reporter line), anyone have it?
Result :: 1.07

Query :: Lab note: need IRF reporter for C[N+]1(C)CCC(OC(=O)C(O)(c2ccccc2)C2CCCC2)C1 (stereo unspecified) on RAW-Dual (murine macrophage reporter line), anyone have it?
Result :: 0.949

Query :: Lab note: need IRF reporter for COc1cc(O)c(C(=O)Nc2nc(C(=O)NCCN(C(C)C)C(C)C)cs2)cc1OC.Cl.O.O.O on RAW-Dual (murine macrophage reporter line), anyone have it?
Result :: 0.96
